The values you see were collected from PubChem BioAssay.

Test: MM1S myeloma cell viability, profiling panel, resazurin fluorescence, basal, 24 h, PK04 Diversity Set (AID 1174);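 also: MM1S multiple myeloma cell line; test concentration not given here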
Settings: higher = more signal, called active from +8 up or from −8 down
Mark T for reported z-score of -0.1 or greater; mark F for anything smaller.

// query hey, is z-score for this one >= -0.1? `COC(=O)CC=C[C@@H](C)[C@@H](C=NOCC[C@@H]1C=C[C@H](OC(C)=O)[C@@H](COC(C)=O)O1)OC`
// result F

// query hey, is z-score for this one >= -0.1? CCOC(=O)[C@H](CC(C)C)NC(=O)CCC1CC(OC(=O)NCCc2ccc(F)cc2)CC2(CCCC(COC(=O)NCCOc3ccccc3)O2)O1 (some centres not stated)
// result T

// query hey, is z-score for this one >= -0.1? `Cc1ccc(S(=O)(=O)n2c3ccccc3c3nnc(C(=O)c4ccccc4)nc32)cc1`
// result F

// query hey, is z-score for this one >= -0.1? `CC(CCN1CCCCc2nc(C)c(C)cc21)=NO[C@H](C)c1cn([C@H](CO)Cc2ccccc2)nn1`
// result T

// query hey, is z-score for this one >= -0.1? `CC(CCC(=O)OC[C@H]1O[C@H](C#Cc2ccccc2)C=C[C@@H]1Oc1ccc(C)cc1)=NO[C@H](C)c1cn([C@H](CO)Cc2ccccc2)nn1`
// result T

// query hey, is z-score for this one >= -0.1? `CCCNC(=O)OC[C@H]1O[C@H](CCON=Cc2ccc(C(=O)N3[C@H](c4ccc(C)cc4)[C@@H](C)CC[C@H]3C(=O)OC)cc2)C=C[C@@H]1Oc1ccc(OC)cc1`
// result F

// query hey, is z-score for this one >= -0.1? `CC(C)CON=C1C[C@@H](O)[C@@H](O)[C@@H]2[C@@H]3C(=O)N(c4ccc(F)cc4F)C(=O)[C@@H]3CC[C@H]12`
// result T
